- TARGET_OR_SYSTEM: T1, R3 (RHAMM-R3) peptide/HLA-A*02:01 complex on T2 cells (human)
- T1 construct: Control target of the phage staining of T2 cells; also called T2 cells pulsed with R3 peptide; RHAMM 3 (R3)
- METHOD: flow cytometry, phage on T2 + R3 peptide; secondary only 123, unstained 99.8
ASSAY_METRIC: Median:FITC-A

BINDER: EXT017-32 scFv phage clone (scFv, also called EXT017-32 phage; phage clone #32) scFv: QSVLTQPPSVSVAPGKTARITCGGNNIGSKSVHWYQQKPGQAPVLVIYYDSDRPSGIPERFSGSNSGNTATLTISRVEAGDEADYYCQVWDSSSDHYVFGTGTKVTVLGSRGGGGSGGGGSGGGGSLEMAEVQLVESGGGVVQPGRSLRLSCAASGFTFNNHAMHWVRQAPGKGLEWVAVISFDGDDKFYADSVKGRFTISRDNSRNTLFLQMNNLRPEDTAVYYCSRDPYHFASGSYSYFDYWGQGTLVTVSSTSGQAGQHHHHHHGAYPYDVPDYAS
REPORTED: 136
//
BINDER: EXT017-17 scFv phage clone (scFv, fusion to the phage coat protein not described; also called EXT017-17 phage; phage clone #17) scFv: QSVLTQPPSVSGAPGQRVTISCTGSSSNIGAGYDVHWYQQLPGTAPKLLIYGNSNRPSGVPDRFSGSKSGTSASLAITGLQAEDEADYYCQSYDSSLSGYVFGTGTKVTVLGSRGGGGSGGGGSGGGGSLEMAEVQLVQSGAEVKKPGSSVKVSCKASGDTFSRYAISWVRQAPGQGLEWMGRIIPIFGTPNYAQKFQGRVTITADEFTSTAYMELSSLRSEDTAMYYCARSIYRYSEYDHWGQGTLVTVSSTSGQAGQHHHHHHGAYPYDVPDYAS
REPORTED: 146
//
BINDER: EXT017-28 scFv phage clone (scFv, full-length scFv with His+HA tags; also called EXT017-28 phage; phage clone #28) scFv: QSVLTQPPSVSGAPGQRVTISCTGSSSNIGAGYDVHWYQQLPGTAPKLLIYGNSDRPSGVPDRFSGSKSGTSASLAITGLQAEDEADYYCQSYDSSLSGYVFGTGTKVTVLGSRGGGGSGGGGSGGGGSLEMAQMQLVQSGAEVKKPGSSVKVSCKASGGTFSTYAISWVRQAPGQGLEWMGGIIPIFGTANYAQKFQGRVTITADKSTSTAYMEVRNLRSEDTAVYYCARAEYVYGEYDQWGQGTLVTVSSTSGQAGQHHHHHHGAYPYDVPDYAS
REPORTED: 140
//
BINDER: EXT017-11 scFv phage clone (scFv, also called phage clone #11) scFv: NFMLTQPHSVSESPGKTVTISCTRSSGSIASNYVQWYQQRPGSAPTTVIYEDNQRPSGVPDRFSGSIDSSSNSASLTISGLKTEDEADYYCQSYDTNNYGVIFGGGTKLTVLGSRGGGGSGGGGSGGGGSLEMAQMQLVQSGAEVKKPGASVKVSCKTSGYTFNNYYMHWVRQAPGQGLEWMGIINPSGGSTNYAQKFQGRVTMTRDTSTSTVYMELSSLRSEDTAVYYCARSFDKQDIDYWGQGTLVTVSSTSGQAGQHHHHHHGAYPYDVPDYAS
REPORTED: 144
